- System: HepG2 (hepatocellular carcinoma) cell line
- experimental.setup: human
Listed here are compounds together with their documented SI HepG2/TM91C235.
readout: SI HepG2/TM91C235

chemical.string	val
CC(=O)O[C@H]1C[C@H]2[C@@H]([C@H](OC(C)=O)C[C@@H]3C[C@H](O)CC[C@@]32C)[C@@H]2CC[C@H]([C@H](C)CCCNCCCCCCNc3ccnc4cc(Cl)ccc34)[C@@]12C	60/56/50
CC(=O)O[C@@H]1CC[C@@]2(C)[C@@H](C1)C[C@@H](OC(C)=O)[C@@H]1[C@@H]2C[C@H](OC(C)=O)[C@]2(C)[C@@H]([C@H](C)CCCNCCCCCCNc3ccnc4cc(Cl)ccc34)CC[C@@H]12	47/29/25

---

Listed here are compounds together with their documented SI HepG2/TM91C235.
- System: HepG2 (hepatocellular carcinoma) cell line
- experimental.setup: human
readout: SI HepG2/TM91C235

chemical.string	experimental.system	val
CC(=O)O[C@H]1C[C@H]2[C@@H]([C@H](OC(C)=O)C[C@@H]3C[C@H](O)CC[C@@]32C)[C@@H]2CC[C@H]([C@H](C)CCCNCCCCNc3ccnc4cc(Cl)ccc34)[C@@]12C	HepG2 (hepatocellular carcinoma) cell line	47/30/28
CC(=O)O[C@H]1C[C@H]2[C@@H]([C@H](OC(C)=O)C[C@@H]3C[C@H](N)CC[C@@]32C)[C@@H]2CC[C@H]([C@H](C)CCCN(CCC[C@@H](C)[C@H]3CC[C@H]4[C@@H]5[C@H](OC(C)=O)C[C@@H]6C[C@H](N)CC[C@]6(C)[C@H]5C[C@H](OC(C)=O)[C@]34C)CCNc3ccnc4cc(Cl)ccc34)[C@@]12C	HepG2 (hepatocellular carcinoma) cell line	21/19/19
CC(=O)O[C@H]1C[C@H]2[C@@H]([C@H](OC(C)=O)C[C@@H]3C[C@H](NC(=O)OC(C)(C)C)CC[C@@]32C)[C@@H]2CC[C@H]([C@H](C)CCCN(C)CCNc3ccnc4cc(Cl)ccc34)[C@@]12C	HepG2 (hepatocellular carcinoma) cell line	293/264/144
CC(=O)O[C@@H]1CC[C@@]2(C)[C@@H](C1)C[C@@H](OC(C)=O)[C@@H]1[C@@H]2C[C@H](OC(C)=O)[C@]2(C)[C@@H]([C@H](C)CCCN(C)CCNc3ccnc4cc(Cl)ccc34)CC[C@@H]12	HepG2 (hepatocellular carcinoma) cell line	98/242/79
CC(=O)O[C@H]1C[C@H]2[C@@H]([C@H](OC(C)=O)C[C@@H]3C[C@H](N)CC[C@@]32C)[C@@H]2CC[C@H]([C@H](C)CCCNCCCNc3ccnc4cc(Cl)ccc34)[C@@]12C	HepG2 (hepatocellular carcinoma) cell line	54/75/43
CC(=O)O[C@H]1C[C@H]2[C@@H]([C@H](OC(C)=O)C[C@@H]3C[C@H](N(C)C)CC[C@@]32C)[C@@H]2CC[C@H]([C@H](C)CCCNCCCNc3ccnc4cc(Cl)ccc34)[C@@]12C	HepG2 (hepatocellular carcinoma) cell line	382/137/156
CC(=O)O[C@H]1C[C@H]2[C@@H]([C@H](OC(C)=O)C[C@@H]3C[C@H](N)CC[C@@]32C)[C@@H]2CC[C@H]([C@H](C)CCCN(CCCNc3ccnc4cc(Cl)ccc34)CCC[C@@H](C)[C@H]3CC[C@H]4[C@@H]5[C@H](OC(C)=O)C[C@@H]6C[C@H](N)CC[C@]6(C)[C@H]5C[C@H](OC(C)=O)[C@]34C)[C@@]12C	HepG2 (hepatocellular carcinoma) cell line	10/9/7
CC(=O)O[C@H]1C[C@H]2[C@@H]([C@H](OC(C)=O)C[C@@H]3C[C@H](O)CC[C@@]32C)[C@@H]2CC[C@H]([C@H](C)CCCNCCCNc3ccnc4cc(Cl)ccc34)[C@@]12C	HepG2 (hepatocellular carcinoma) cell line	84/115/90

// data source = paper PMC4032193
